EXPERIMENTAL_PROTOCOL: clinical
PROTOCOL_CONDITIONS: human, in vivo, 100 mg, Tmax
QUANTITY_KIND: Tmax

1. COC(=O)N[C@H](C(=O)N1CCC[C@H]1c1nc2cc(-c3csc4c(-c5ccc(-c6cnc([C@@H]7CCCN7C(=O)[C@H](NC(=O)OC)c7ccccc7)[nH]6)cc5)csc34)ccc2[nH]1)C(C)C [the Compound]: 3.7 h

###

EXPERIMENTAL_PROTOCOL: clinical
PROTOCOL_CONDITIONS: human, in vivo, 50 mg
QUANTITY_KIND: half-life (h)

1) COC(=O)N[C@H](C(=O)N1CCC[C@H]1c1nc2cc(-c3csc4c(-c5ccc(-c6cnc([C@@H]7CCCN7C(=O)[C@H](NC(=O)OC)c7ccccc7)[nH]6)cc5)csc34)ccc2[nH]1)C(C)C: 22

###

EXPERIMENTAL_PROTOCOL: Phase I/IIa Group A: pharmacokinetics in healthy subjects
Format: in vivo, human
PROTOCOL_CONDITIONS: human, plasma, oral, 10 mg, healthy subjects, 10 mg single dose, fasted, PK Day 1, mean ± SD
QUANTITY_KIND: half-life (min)

1. COC(=O)N[C@H](C(=O)N1CCC[C@H]1c1nc2cc(-c3csc4c(-c5ccc(-c6cnc([C@@H]7CCCN7C(=O)[C@H](NC(=O)OC)c7ccccc7)[nH]6)cc5)csc34)ccc2[nH]1)C(C)C: 1440

###

EXPERIMENTAL_PROTOCOL: Phase I/IIa Group A: pharmacokinetics in healthy subjects
Type: in vivo, human
PROTOCOL_CONDITIONS: human, plasma, oral, 100 mg, healthy subjects, 100 mg single dose, fasted, PK Day 1, median (min-max)
Experimental: The phase I/IIa study was designed to evaluate safety and tolerability, pharmacokinetics (PK), food effect, and antiviral activity with regard to the Compound. The key safety parameters that were evaluated in the trial include adverse events (AEs), physical examination, vital signs, 12-lead electrocardiogram (ECG), and standard safety laboratory tests. The key antiviral activity parameters that were evaluated in the trial include changes in plasma HCV RNA and emergence of resistance mutations. […]
QUANTITY_KIND: Tmax (h)

1) COC(=O)N[C@H](C(=O)N1CCC[C@H]1c1nc2cc(-c3csc4c(-c5ccc(-c6cnc([C@@H]7CCCN7C(=O)[C@H](NC(=O)OC)c7ccccc7)[nH]6)cc5)csc34)ccc2[nH]1)C(C)C: 4

###

EXPERIMENTAL_PROTOCOL: clinical
PROTOCOL_CONDITIONS: human, in vivo, 5 mg
QUANTITY_KIND: AUC(0-inf) (ng·h/mL)

1. COC(=O)N[C@H](C(=O)N1CCC[C@H]1c1nc2cc(-c3csc4c(-c5ccc(-c6cnc([C@@H]7CCCN7C(=O)[C@H](NC(=O)OC)c7ccccc7)[nH]6)cc5)csc34)ccc2[nH]1)C(C)C: 39

###

EXPERIMENTAL_PROTOCOL: clinical
PROTOCOL_CONDITIONS: human, in vivo, 100 mg, AUC0-24
QUANTITY_KIND: AUC(0-t) (ng·h/mL)

1. COC(=O)N[C@H](C(=O)N1CCC[C@H]1c1nc2cc(-c3csc4c(-c5ccc(-c6cnc([C@@H]7CCCN7C(=O)[C@H](NC(=O)OC)c7ccccc7)[nH]6)cc5)csc34)ccc2[nH]1)C(C)C: 410

Data origin, for the record: patent US20150224085A1
